experiment: Plasma pharmacokinetics of ATV and metabolites in BDC and UCC monkeys (LC-MS/MS); assay type: in vivo, cynomolgus macaques; settings: male, cynomolgus, cynomolgus monkey, plasma, po, 30 mg/kg, plasma, BDC monkeys (n = 4), 30 mg/kg oral dose of ATV, ± standard deviation; read-out: AUC0‐24h
For each record, write down the corresponding AUC.
Numbers only, in µM·h.

Molecule	Test result
CC(C)c1c(C(=O)Nc2ccccc2O)c(-c2ccccc2)c(-c2ccc(F)cc2)n1CC[C@@H]1C[C@@H](O)CC(=O)O1 [2‐OH ATV‐L, 2‐hydroxyatorvastatin lactone]	0.116

# evaluate next
What measured AUC goes with CC(C)c1c(C(=O)Nc2ccccc2O)c(-c2ccccc2)c(-c2ccc(F)cc2)n1CC[C@@H](O)C[C@@H](O)CC(=O)O [2‐OH ATV, 2‐hydroxyatorvastatin] ?
0.664

Source: paper PMC6536413
